Test system: Calu-6
Assay Explanation: relative viability (nuclei count vs DMSO), 5 days (fraction); higher = more cells survive
Test Context: first compound 4 µM
Entries annotated with measured relative viability
Output: the number by itself.

The value of relative viability recorded for COc1cc(N2CCC(C(N)=O)CC2)ccc1Nc1nc(N)c(Cl)c(Nc2ccccc2S(=O)(=O)C(C)C)n1 [HG-5-88-01] + CC(C)C[C@H](NC(=O)[C@H](Cc1ccccc1)NC(=O)c1cnccn1)B(O)O [Bortezomib] (partner 0.002 µM) when tested on Calu-6 reads 0.841

Record Clc1ccc(Nc2nnc(Cc3ccncc3)c3ccccc23)cc1 [Vatalanib] + C[C@]1(O)C[C@@H](c2nc(-c3ccc4ccc(-c5ccccc5)nc4c3)c3c(N)nccn32)C1 [Linsitinib] (partner 1 µM) / Calu-6, relative viability recorded as 1.01

Sample Clc1ccc(Nc2nnc(Cc3ccncc3)c3ccccc23)cc1 [Vatalanib] + O=C(c1cc(Cc2n[nH]c(=O)c3ccccc23)ccc1F)N1CCN(C(=O)C2CC2)CC1 [Olaparib] (partner 8 µM) , system: Calu-6. Its relative viability is 0.541

Considering C[C@@H]1CN(CC(=O)Nc2ccc3c(c2)Cc2cccc(-c4cc(=O)cc(N5CCOCC5)o4)c2S3)C[C@H](C)O1 + C[C@]1(O)C[C@@H](c2nc(-c3ccc4ccc(-c5ccccc5)nc4c3)c3c(N)nccn32)C1 [Linsitinib] (partner 1 µM) , its relative viability with Calu-6 was recorded as 0.673

Record Clc1ccc(Nc2nnc(Cc3ccncc3)c3ccccc23)cc1 [Vatalanib] + CS(=O)(=O)N1CCN(Cc2cc3nc(-c4cccc5[nH]ncc45)nc(N4CCOCC4)c3s2)CC1 [Pictilisib] (partner 1 µM) has Calu-6 relative viability equal to 0.835

====

Tested on: NCI-H520
Assay Explanation: relative viability (nuclei count vs DMSO), 5 days (fraction); higher = more cells survive
Test Context: first compound 8 µM
Consider the following compounds and their measured relative viability readings.

Compound	Value Kind	Recorded Result
CCCCCCCCCCCC1=C(O)C(=O)C=C(O)C1=O [Embelin] + O=C(c1cc(Cc2n[nH]c(=O)c3ccccc23)ccc1F)N1CCN(C(=O)C2CC2)CC1 [Olaparib] (partner 8 µM)	relative viability	0.352

Record CCCCCCCCCCCC1=C(O)C(=O)C=C(O)C1=O [Embelin] + Cc1nc(NC(=O)N2CCC[C@H]2C(N)=O)sc1-c1ccnc(C(C)(C)C(F)(F)F)c1 [Alpelisib] (partner 2 µM) / NCI-H520, relative viability recorded as 0.901

Field relative viability (NCI-H520), entry CCCCCCCCCCCC1=C(O)C(=O)C=C(O)C1=O [Embelin] + C[C@@H](Oc1cc(-c2cnn(C3CCNCC3)c2)cnc1N)c1c(Cl)ccc(F)c1Cl [Crizotinib] (partner 1 µM) : 0.782

Query CCCCCCCCCCCC1=C(O)C(=O)C=C(O)C1=O [Embelin] + COc1cccc2cc(-c3nc([C@H]4CC[C@H](C(=O)O)CC4)n4ncnc(N)c34)[nH]c12 [OSI-027] (partner 0.5 µM) on NCI-H520; relative viability returned: 0.238

====

Test system: NCI-H2347
Assay Explanation: relative viability (nuclei count vs DMSO), 5 days (fraction); higher = more cells survive
Test Context: first compound 0.04 µM
Known relative viability of a selection of compounds
Give a plain numeric answer without units written out.

Compound	Tested Target	relative viability
Clc1ccc(Nc2nnc(Cc3ccncc3)c3ccccc23)cc1 [Vatalanib] + CCNC(=O)c1noc(-c2cc(C(C)C)c(O)cc2O)c1-c1ccc(CN2CCOCC2)cc1 [Luminespib] (partner 0.01 µM)	NCI-H2347	0.416

The compound identified as COc1cc(N2CCC(C(N)=O)CC2)ccc1Nc1nc(N)c(Cl)c(Nc2ccccc2S(=O)(=O)C(C)C)n1 [HG-5-88-01] + C[C@]1(O)C[C@@H](c2nc(-c3ccc4ccc(-c5ccccc5)nc4c3)c3c(N)nccn32)C1 [Linsitinib] (partner 1 µM) registered its relative viability at 0.988
